# Assayed system: T1, CD96 (UniProt P40200)
# T1 sequence (looked up): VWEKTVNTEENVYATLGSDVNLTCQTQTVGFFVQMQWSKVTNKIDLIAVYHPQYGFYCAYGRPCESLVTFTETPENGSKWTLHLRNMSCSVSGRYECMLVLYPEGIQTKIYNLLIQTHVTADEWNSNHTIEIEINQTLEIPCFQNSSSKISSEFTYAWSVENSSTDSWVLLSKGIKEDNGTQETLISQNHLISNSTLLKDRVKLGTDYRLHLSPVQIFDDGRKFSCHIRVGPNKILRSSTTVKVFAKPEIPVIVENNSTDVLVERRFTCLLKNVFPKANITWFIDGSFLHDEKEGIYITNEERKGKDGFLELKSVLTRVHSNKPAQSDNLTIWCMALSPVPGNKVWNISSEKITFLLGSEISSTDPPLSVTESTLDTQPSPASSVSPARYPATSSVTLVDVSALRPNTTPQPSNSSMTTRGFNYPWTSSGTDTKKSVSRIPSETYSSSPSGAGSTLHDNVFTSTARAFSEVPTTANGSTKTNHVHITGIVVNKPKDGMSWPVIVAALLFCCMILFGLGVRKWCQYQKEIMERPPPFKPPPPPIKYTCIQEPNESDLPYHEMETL
# Method: flow cytometry, cells
For each record, write down the corresponding MFI.
One number for each entry.

CD155 L44P IgV-Fc (Fc fusion, not shown: a dimerising Fc or GST; small tags and cut ends) PGTGDVVVQAPTQVPGFLGDSVTLPCYLQVPNMEVTHVSQPTWARHGESGSMAVFHQTQGPSYSESKRLEFVAARLGAELRNASLRMFGLRVEDEGNYTCLFVTFPQGSRSVDIWL	152000

Next item in the queue.
Input line: Given the entry CD155 R94H IgV-Fc (Fc fusion, not shown: a dimerising Fc or GST; small tags and cut ends) PGTGDVVVQAPTQVPGFLGDSVTLPCYLQVPNMEVTHVSQLTWARHGESGSMAVFHQTQGPSYSESKRLEFVAARLGAELRNASLRMFGLHVEDEGNYTCLFVTFPQGSRSVDIWL , report its measured MFI.
Output line: 11700
